Where do the numbers come from? From patent US10577362B2.

# pEC50 listing for each entry below
# Test system: A375 (malignant melanoma) cell line
# run.description: CellTiter-Glo luminescent cell viability assay, A375
# Type: cell-based, human
# measurement.setup: Homo sapiens, A-375; A375 cell line; 72 h incubation; CellTiter-Glo; read-out: EC50, growth inhibition of A375
pEC50: −log10 of the molar value. Structures can show the parent of a compound that is named as a salt.

Recorded results for 5 molecules are shown here.
[[record]]
molecule = "N#Cc1c(NCc2ccc(Cl)cc2)nc2ccccc2c1N1CCC(N)C1 (stereo not drawn) [Compound 3190CN]"
measured_target = "A375 (malignant melanoma) cell line"
test_result = "5.00 to 5.30"

[[record]]
molecule = "Cc1ccc2c(N3CCC(NC(C)(C)C)CC3)c(C#N)c(NCc3ccc(Cl)cc3)nc2c1 [Compound 416CN]"
measured_target = "A375 (malignant melanoma) cell line"
test_result = "5.30 to 6.30"

[[record]]
molecule = "Cc1ccnc(Nc2ccc(Nc3nc4ccccc4c(N4CCC(NC(C)(C)C)CC4)c3C#N)cc2C)n1 [Compound 500CN]"
measured_target = "A375 (malignant melanoma) cell line"
test_result = "5.00 to 5.30"

[[record]]
molecule = "CC(C)(C)NC1CCN(c2c(C#N)c(Nc3ccccc3)nc3ccccc23)CC1 [Compound 3246CN]"
measured_target = "A375 (malignant melanoma) cell line"
test_result = "5.30 to 6.30"

[[record]]
molecule = "CN1CCN(C2CCN(c3c(C#N)c(NCc4ccc(Cl)cc4)nc4ccccc34)CC2)CC1 [Compound 3188CN]"
measured_target = "A375 (malignant melanoma) cell line"
test_result = "5.30 to 6.30"


Can you look up the measured pEC50 of COC[C@@H]1CCCN1c1cc(NCc2ccc(Cl)cc2)nc2ccccc12 [Compound 2310, hydrochloride] for me? 5.30 to 6.30

---

# System: Huh7 (hepatocellular carcinoma) cell line
# run.description: CellTiter-Glo luminescent cell viability assay, Huh7
# Assay type: cell-based, human
# measurement.setup: Homo sapiens, Huh-7; Huh7, compound at 4 μM, 72 h
Where a name gives a salt, the structure may show the parent alone.
# viability at 4 µM listing for each entry below
Numbers only; they are read as %.

Recorded results for 4 compounds are shown here.
[[record]]
compound = "Cc1cc(Nc2nc3ccccc3c(N3CCC(NC(C)(C)C)CC3)c2C#N)ccc1F [Compound 3250CN]"
test_result = 67

[[record]]
compound = "Cc1cc(Nc2nc3ccccc3c(N3CCC(NC(C)(C)C)CC3)c2C#N)ccc1Nc1nccc(-c2cccnc2)n1 [Compound 3131CN]"
test_result = 87

[[record]]
compound = "N#Cc1c(NCc2ccc(Cl)cc2)nc2ccccc2c1N1CCC(N2CCOCC2)CC1 [Compound 202CN]"
test_result = 83.6

[[record]]
compound = "Cc1ccc2c(N3CCC(NC(C)(C)C)CC3)c(C#N)c(NCc3ccc(Cl)cc3)nc2c1 [Compound 416CN]"
test_result = 75.5


Query for Huh7 (hepatocellular carcinoma) cell line: what viability at 4 µM does the record show for CC(C)N(Cc1ccc(Cl)cc1)c1cc(N2CCC(NC(C)(C)C)CC2)c2ccccc2n1 [Compound 216, hydrochloride] ? 74.1

Also CC(C)(C)NC1CCN(c2c(C#N)c(NCc3ccc(F)cc3)nc3ccccc23)CC1 [Compound 240CN] ? 80

Also Cc1cc(C)nc(Nc2ccc(Nc3nc4ccccc4c(N4CCC(NC(C)(C)C)CC4)c3C#N)cc2)n1 [Compound 3276CN] ? 41.2

Also N#Cc1c(NCc2ccc(Cl)cc2)nc2ccccc2c1N1CCC(NC2CCOCC2)CC1 [Compound 3180CN] ? 76.5

Also CC(C)(C)NC1CCN(c2c(C#N)c(Nc3ccc(OC(F)(F)F)cc3)nc3ccccc23)CC1 [Compound 3266CN] ? 78

---

# System: PANC-1 (prancreatic carcinoma) cell line
# run.description: CellTiter-Glo luminescent cell viability assay, PANC-1
# Assay type: cell-based
# measurement.setup: Homo sapiens; PANC-1, 10 μM, 72 h, % of signal of diluent-treated cultures
// classify(record): look up viability at 10 µM in ranges lo: < 4%; med: ≥ 4% and < 70%; hi: ≥ 70%

[[record]]
compound = "N#Cc1c(NCc2ccc(Cl)cc2)nc2ccccc2c1N1CCC(NC2CCCC2)C1 (stereo not shown) [Compound 134CN]"
classification = "hi"

[[record]]
compound = "CC(C)(C)NC1CCN(c2c(C#N)c(Nc3cccc(F)c3)nc3ccccc23)CC1 [Compound 3262CN]"
classification = "med"

[[record]]
compound = "CN1CCC(NC2CCCN(c3c(C#N)c(NCc4ccc(Cl)cc4)nc4ccccc34)C2)CC1 (stereo not shown) [Compound 3162CN]"
classification = "lo"

[[record]]
compound = "Cc1ccc2nc(NCc3ccc(Cl)cc3)c(C#N)c(N3CCC(NC(C)(C)C)CC3)c2c1 [Compound 418CN]"
classification = "lo"

[[record]]
compound = "CN1CCN(C2CCN(c3c(C#N)c(NCc4ccc(Cl)cc4)nc4ccccc34)CC2)CC1 [Compound 3188CN]"
classification = "lo"

[[record]]
compound = "CC(C)(C)NC1CCN(c2c(C#N)c(NCc3ccc(F)cc3)nc3ccccc23)CC1 [Compound 240CN]"
classification = "med"


State the class of the compound shown: N#Cc1c(NCc2ccc(Cl)cc2)nc2ccccc2c1N1CCCC(N2CCOCC2)C1 (stereo not shown) [Compound 178CN] hi

Also CNC1CCCN(c2c(C#N)c(NCc3ccc(Cl)cc3)nc3ccccc23)C1 (stereo not shown) [Compound 3158CN] ? med

Also CCN(CC)C1CCCN(c2c(C#N)c(NCc3ccc(Cl)cc3)nc3ccccc23)C1 (stereo not shown) [Compound 160CN] ? hi

Also N#Cc1c(NCc2ccc(Cl)cc2)nc2ccccc2c1N1CCC(N2CCOCC2)C1 (stereo not shown) [Compound 150CN] ? hi

Also CC(C)NC1CCCN(c2c(C#N)c(NCc3ccc(Cl)cc3)nc3ccccc23)C1 (stereo not shown) [Compound 3160CN] ? lo

---

# Test system: Huh7 (hepatocellular carcinoma) cell line
# run.description: CellTiter-Glo luminescent cell viability assay, Huh7
# Type: cell-based, human
# measurement.setup: Homo sapiens, Huh-7; Huh7, compound at 4 μM, 72 h
# viability at 4 µM listing for each entry below
Numbers only; they are read as %.

Can you look up the measured viability at 4 µM of CC(C)NC1CCCN(c2c(C#N)c(NCc3ccc(Cl)cc3)nc3ccccc23)C1 (stereo not shown) [Compound 3160CN] for me? 80.8

Also N#Cc1c(NCc2ccc(Cl)cc2)nc2ccccc2c1N1CCC(Oc2ccc(F)cc2)C1 (stereo not shown) [Compound 3338CN] ? 96.9

Also N#Cc1c(NCc2ccc(Cl)cc2)nc2ccccc2c1N1CCC(N2CCCC2)CC1 [Compound 200CN] ? 83.1

Also COc1ccc(Nc2nc3ccccc3c(N3CCC(NC(C)(C)C)CC3)c2C#N)cc1 [Compound 3252CN] ? 80.6

---

# Tested on: A375 (malignant melanoma) cell line
# run.description: CellTiter-Glo luminescent cell viability assay, A375
# Type: cell-based, human
# measurement.setup: Homo sapiens, A-375; A375, compound at 10 μM, 72 h
Counter-ions that a name gives are not always drawn.
Binary call on viability at 10 µM with cut-off 0.5%: strictly below means Fulfilled, and equality or higher means Not fulfilled.

// known answers, use as guide
[[record]]
molecule = "CC(C)(C)NC1CCN(c2c(C#N)c(Nc3cccc(C(F)(F)F)c3)nc3ccccc23)CC1 [Compound 3256CN]"
classification = "Not fulfilled"

[[record]]
molecule = "CCN(CC)C1CCCN(c2c(C#N)c(NCc3ccc(Cl)cc3)nc3ccccc23)C1 (centres unmarked) [Compound 160CN]"
classification = "Not fulfilled"


State whether 0.5% exceeds viability at 10 µM recorded for CC(C)(C)NC1CCN(c2c(C#N)c(NCc3ccc(F)cc3)nc3ccccc23)CC1 [Compound 240CN] . Fulfilled

Also COc1ccc(OC2CCCN(c3c(C#N)c(NCc4ccc(Cl)cc4)nc4ccccc34)C2)cc1 (centres unmarked) [Compound 3232CN] ? Not fulfilled

Also COc1ccc(OC2CCN(c3c(C#N)c(NCc4ccc(Cl)cc4)nc4ccccc34)C2)cc1 (centres unmarked) [Compound 3334CN] ? Not fulfilled

Also CCN(Cc1ccc(Cl)cc1)c1cc(N2CCC(NC(C)(C)C)CC2)c2ccccc2n1 [Compound 214, hydrochloride] ? Fulfilled

Also Cc1ccc2nc(NCc3ccc(Cl)cc3)c(C#N)c(N3CCC(NC(C)(C)C)CC3)c2c1 [Compound 418CN] ? Fulfilled

Also N#Cc1c(NCc2ccc(Cl)cc2)nc2ccccc2c1N1CCC(NC2CCOCC2)C1 (centres unmarked) [Compound 136CN] ? Not fulfilled

Also CC(C)NC1CCCN(c2c(C#N)c(NCc3ccc(Cl)cc3)nc3ccccc23)C1 (centres unmarked) [Compound 3160CN] ? Fulfilled

Also CCN(CC)C1CCN(c2c(C#N)c(NCc3ccc(Cl)cc3)nc3ccccc23)CC1 [Compound 184CN] ? Not fulfilled

Also Cc1ccc(OC2CCN(c3c(C#N)c(NCc4ccc(Cl)cc4)nc4ccccc34)CC2)cc1 [Compound 2944CN] ? Not fulfilled

Also CC(C)(C)NC1CCN(c2c(C#N)c(Nc3ccc(OC(F)(F)F)cc3)nc3ccccc23)CC1 [Compound 3266CN] ? Not fulfilled

Also Cc1ccc2c(N3CCC(NC(C)(C)C)CC3)c(C#N)c(NCc3ccc(Cl)cc3)nc2c1 [Compound 416CN] ? Fulfilled
